- Tested on: normal fibroblasts stimulated with bleomycin
- Procedure summary: Bleomycin induced fibrosis in vitro model: normal fibroblasts stimulated with bleomycin, hydroxyproline in culture media
- Format: cell-based
- Condition context: Fibroblast; decreasing concentrations of compound against 10 μM bleomycin, 48 h, hydroxyproline in culture media (FIG. 9)
Readout type: IC50

- Compound: "COC(=O)C1=C(C)NC2=C(C(=O)CC(c3ccc(OC)c(OC)c3)C2)C1c1cccc2ccccc12 (stereo not drawn)"
  Assay system: "normal fibroblasts stimulated with bleomycin"
  IC50: "~1 nM"

Enquiry: Param readout= IC50; system= normal fibroblasts stimulated with bleomycin; entry= Cc1nn(-c2ccccc2)c2c1C(c1c(O)ccc3ccccc13)C(C#N)=C(N)O2 (stereo not drawn) ; returns value.
Return: ~1 nM

Enquiry: So what IC50 did COCCOC(=O)C1=C(C)NC2=C(C(=O)CCC2)C1c1cccc2ccccc12 (stereo not drawn) get with normal fibroblasts stimulated with bleomycin?
Return: ~1 nM
